test: soluble on expression in E. coli; label from the status in PepcDB or PDB records
ASSAY_ENDPOINT: soluble on expression in E. coli

[[record]]
entry_sequence = "MAHHHHHHMPGPGLLADGWFREENGQWPGQAMSFKVEEVLHDTPTKFQHLSIFETDPKGPWGTVMTLDGCIQLTDFDEFVYHEMLSHTPLCAHPDPVDVLIIGGGDGGVMREVLRHGTVKRCVLVDIDGDVIEASKKYFPQISSGFSDPRADVRVGDGVAFVREAASESFDVVIIDTTDPDGPAAELFGEKFYRDVLRILKPRGICCNQGESVWLNRNLIEGMADFIKNKVGFASVKYAMIYTPTYPCGSIGSLICSKVAGVDVTQPVRPVESMPFAGELKYYDSDVHKAAFVLPRFARHLNQNYS"
result = "soluble"

[[record]]
entry_sequence = "APSASFERRQGSVNPYIGRSPLVIKSYAEKLEETIAYFEAQGDELNAARTRTVQGIPTFAWISDSATIDTIQPLIADAVAHQEASGEQVLVQLVIYNLPDRDCAAKASDGEFHLDDDGANKYRAYVDRIVAELSTADADKLHFSIVLEPDSLGNMVTNMHVPKCQGAATAYKEGIAYTIASLQKPNIDLYIDAAHGGWLGWNDNLRPSAEIFKETLDLARQITPNATVRGLAINVSNYNPYKTRAREDYTEWNNAYDEWNYVKTLTPHLQAVGFPAQFIVDQGRSGREGIRTEWGQWCNIRNAGFGIRPTTDQAIVDSANVDAIVWVKPGGESDGTSDVNAVRFDENCRSPASHVPAPEAGEWFNEFVVNLVINANPPLEPTYAAAALEHHHHHH"
result = "soluble"


----------
assay: soluble on expression in E. coli; label from the status in PepcDB or PDB records
ASSAY_ENDPOINT: soluble on expression in E. coli

[[record]]
entry_sequence = "MLPVTYRLIPQSGVSTYRLNTADTPVFPDIPEHAPNPSRLRLAHDSLAINSEFRLEPECVVEYLISGAGGIDPDTEIDDDTYDECYDELSSVLQNAYTQSETFRRLMNYAYEKELHDVEQRWLLGAGEAFETTVAQEHFKLSEGRKVICLNLDDSDDSYTEHYESNEGRQLFDTKRSFIHEVVHALTHLQDKEENHPRGPVVEYTNIILKEMGHPSPPRMVYIFNK"
result = "not soluble"

[[record]]
entry_sequence = "IKDFDYNIGFNMSTTKNKVVELSDADQVLQGEGLKYGTEHFPTETRVGKPIGAFYLYRTDGIFQSMDEVNAHVNKDGQLLQPNAQPGDIRFKDLDGNGSIDAGDKEYCGSGIPTLEANLNLSFGYKGFDLSIVLGSAWNFKLYNGNKYFYEGMNSKSNMLKSTLNAWTPDNRNTDVPRAVYQDPNGNMKESDRFLENGDFVRLRQAQLGYTLPKSLMQKFYIEKLRFYVSGENLFTITGYDGIDPEFSRASVLNTGVDKLIYPFTRSFTVGAQLTF"
result = "not soluble"


----------
assay: soluble on expression in E. coli; label from the status in PepcDB or PDB records
ASSAY_ENDPOINT: soluble on expression in E. coli

[[record]]
entry_sequence = "MEIERINEHTVKFYISYVDIEERGFDREEIWYNRERSEELFWEMMDEVHGESDFSLDGPLWIQVQALEKGLEVVVTKAQLSKDGSKLELPLPEEKWREFSLSADEKVESLFGHHFHFGQNGDAEEREEQDVLRFILSFKDIEDVISLAHRADFSRLSNRLFQFEGRYYLFVEFDERYTEQEVDNMLSLLLEYGSDSQLTIYRLEEYGTEIMGDNALETIKTYFPAS"
result = "not soluble"

[[record]]
entry_sequence = "MSLKITDVRVIRFRTHADRWDIGHARLRPAAEVSQTVTCIDTDAGLTGWFFGGGKHGDQDGMSPDEQRLIEGRVRDLLLGVDPFDREAVWKWMWVANLPEVAQSVIDCALWDLAGRAAGQPVYKLMGAARDKVPAYASTYPNIGPPQVYAEHALACRAEGYKAYKIHPHYFWNPDTGLPTKGRPSNIRADIETINLVREAVGPDMVLMYDVWGTYHTIEETIKVGRELERNDFYWFEHPMPEYRVESYRRLCRELSIPILAPEIAAGGVFTRAEWILQGASDMSRMDIRRGGVTGCRKTAVVCEAFGQRCEIHMAGWGNLQVMGATSQDTSEWYEKGLLAPGVDYDAPHPYLERNCDPMDAEGHVALPTAPGLGYEPIWDYIDDNRVPSEGHHHHHH"
result = "soluble"

[[record]]
entry_sequence = "MVSYKLTYFNGRGAGEVSRQIFAYAGQQYEDNRVTQEQWPALKETCAAPFGQLPFLEVDGKKLAQSHAIARFLAREFKLNGKTAWEEAQVNSLADQYKDYSSEARPYFYAVMGFGPGDVETLKKDIFLPAFEKFYGFLVNFLKASGSGFLVGDSLTWIDLAIAQHSADLIAKGGDFSKFPELKAHAEKIQAIPQIKKWIETRPVTPF"
result = "soluble"

[[record]]
entry_sequence = "MGSDKIHHHHHHMNMEINPSEYKILIVDDVMSNVLLLKVLLTNEKFNIVTASNGNQALDQVKKENPDLILLDVMMPDMSGFEVSQKLKADPEAAHIPIIFLTALNSTADIVKGFQVGGNDFISKPFNKEELIIRVSHQISLVAAKRIIEAKTEELKKTIIGRDKLYSVIAHDLRSPMGSIKMVLNMLILSLPKEKIGEDMYELLTMANQTTEDVFSLLDNLLKWTKSQIGKLKVVYQDIDMVEVVEGVGEIFAMVAGLKNIRLRIESPECQAVHADIDMIKTVIRNLISNAIKFSNEGSEVLIKVEESDGMSVVSVKDSGCGIDEESQKKLLHTDTHFSTFGTNNEEGSGLGLLLCQDFVVKNGGKLWFTSVKDEGSTFYFSIPLKK"
result = "not soluble"

[[record]]
entry_sequence = "SGCIQSITCKARIRRENIVVYDVCATIDQCPTRIEETSPIVLRYKTPYFKASARVVMPPIPRHETWVVGWIQACNQMEFFNTYSDLGMSSWELPDLREGRVKAISDSDGVSYPWYGNTTETVTLVGPTNKISRFSVSMNDNFYPSVTWAVPVSDSNVPLLTRIKRDQSFTTWLVAMNTTTKEKIILQTIKWRMRVDIEVDPLQLLGQRARLVGRTQQEQPRILSRMEPIPPNALVKPNANDAQVLMWRPKRGPPLVVIPPK"
result = "soluble"


Item GMEPSAKHLQLQTLLSERHAYLMEGNREAMHQLLSSDFSFIDGQGRQFDAETYLDHYVDPDQIQWSNQISESMVVEVFETTALVQEIVEDHFSYGRSMYIGRFRSVSLYHWANEGWKWHFHQLTPLDPS : provide soluble on expression in E. coli
soluble
